- test-system: p-Akt1 in LNCaP cells (Homo sapiens, UniProt P31749)
- Construct: SureFire assays to detect cellular p-Akt1, p-Akt2 and p-Akt3 levels in WM115 cells (Akt2/3) and LNCaP cells (Akt1); endogenous in cells; host or cells: LNCaP (ECACC 89110211)
- Sequence (P31749 whole entry): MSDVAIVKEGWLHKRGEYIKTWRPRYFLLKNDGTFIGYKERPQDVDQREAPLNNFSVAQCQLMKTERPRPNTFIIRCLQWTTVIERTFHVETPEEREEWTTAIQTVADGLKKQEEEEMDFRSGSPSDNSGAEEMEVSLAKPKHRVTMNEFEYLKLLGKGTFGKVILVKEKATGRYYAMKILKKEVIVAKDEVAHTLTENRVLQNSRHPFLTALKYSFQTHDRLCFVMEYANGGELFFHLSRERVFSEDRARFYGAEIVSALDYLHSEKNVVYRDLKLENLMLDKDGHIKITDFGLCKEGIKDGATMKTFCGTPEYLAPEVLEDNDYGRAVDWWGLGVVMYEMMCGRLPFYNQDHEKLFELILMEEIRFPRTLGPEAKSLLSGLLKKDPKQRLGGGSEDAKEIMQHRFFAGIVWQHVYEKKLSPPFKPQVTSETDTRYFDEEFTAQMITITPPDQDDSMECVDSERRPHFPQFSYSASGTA
- test-summary: Phospho-Akt cellular SureFire assay, p-Akt1 in LNCaP cells
- Assay type: cell-based
- condition-set: read-out: Biological Assay 2 IC50 (nM) Akt1 LNCaP
value-type: IC50

The cases that follow already have their IC50 on record.
smiles: COC(=O)N(C)[C@H]1CC[C@H](CC(=O)Nc2cc(-c3ccccc3)c(-c3ccc(C4(N)CCC4)cc3)nn2)CC1
IC50: > 30000 nM
//
smiles: CC(C)(N)c1ccc(-c2ncc(NC(=O)C[C@H]3CC[C@H](NC(=O)C4CC4)CC3)cc2-c2ccccc2)cc1
IC50: > 30000 nM

Return IC50 for the following molecule: NC1(c2ccc(-c3cnc(NC(=O)C[C@H]4CC[C@H](N5CCOC5=O)CC4)cc3-c3ccccc3)cc2)CC1
> 30000 nM

----------
- test-system: Akt2 (Homo sapiens, UniProt P31751)
- Construct: unspecified tag, removed (detagged) (cleaved yes); purchased SignalChem and Proteros (Akt2); Merck Millipore (PDK1) 14-452 (PDK1); none given for Akt2
- Sequence (P31751 whole entry): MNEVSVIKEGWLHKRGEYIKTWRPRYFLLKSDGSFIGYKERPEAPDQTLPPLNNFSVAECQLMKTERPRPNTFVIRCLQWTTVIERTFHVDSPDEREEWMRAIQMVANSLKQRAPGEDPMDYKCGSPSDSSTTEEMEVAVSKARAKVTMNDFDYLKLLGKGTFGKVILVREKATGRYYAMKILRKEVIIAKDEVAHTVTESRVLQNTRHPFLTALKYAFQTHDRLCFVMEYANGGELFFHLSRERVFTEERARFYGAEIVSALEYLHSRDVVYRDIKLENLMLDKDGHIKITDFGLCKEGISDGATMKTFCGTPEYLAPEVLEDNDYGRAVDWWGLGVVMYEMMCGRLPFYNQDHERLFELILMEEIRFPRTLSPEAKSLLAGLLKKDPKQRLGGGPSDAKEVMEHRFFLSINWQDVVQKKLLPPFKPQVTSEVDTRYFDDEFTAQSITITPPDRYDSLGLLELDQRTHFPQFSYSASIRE
- test-summary: Akt activation assay (PDK1-mediated activation, LANCE Ultra crosstide TR-FRET), Akt2
- Assay type: biochemical
- condition-set: read-out: Biological Assay 1 IC50 (nM) Akt2
value-type: log10 IC50 (log10 of the value in nM)
Units before log transform: nM; reported quantity: IC50; transform: log10.

The cases that follow already have their log10 IC50 on record.
compound: CC(=O)NC1CCC(CC(=O)Nc2cnc(-c3ccc([C@]4(N)C[C@](C)(O)C4)cc3)c(-c3ccccc3)c2)CC1 (some centres unmarked) [Example 2]
test-system: Akt2 (Homo sapiens, UniProt P31751)
log10 IC50: 1.97
//
compound: CCCC(=O)N(C)[C@H]1CC[C@H](CC(=O)Nc2cnc(-c3ccc(C4(N)CC4)cc3)c(-c3ccccc3)c2)CC1 [Example A33]
test-system: Akt2 (Homo sapiens, UniProt P31751)
log10 IC50: 2.58
//
compound: CC(=O)N[C@H]1CC[C@H](CC(=O)Nc2cnc(-c3ccc([C@]4(N)C[C@H](F)C4)cc3)c(-c3ccccc3)c2)CC1 [Example 15]
test-system: Akt2 (Homo sapiens, UniProt P31751)
log10 IC50: 2.76
//
compound: COCC(=O)N(C)[C@H]1CC[C@H](CC(=O)Nc2cc(-c3ccccc3)c(-c3ccc([C@]4(N)C[C@](C)(O)C4)cc3)cn2)CC1 [Example 107]
test-system: Akt2 (Homo sapiens, UniProt P31751)
log10 IC50: 1.97
//
compound: CC(=O)N(C(C)C)[C@H]1CC[C@H](CC(=O)Nc2cnc(-c3ccc(C(C)(C)N)cc3)c(-c3ccccc3)c2)CC1 [Example A44]
test-system: Akt2 (Homo sapiens, UniProt P31751)
log10 IC50: 4.11
//
compound: NC1(c2ccc(-c3nnc(NC(=O)C[C@H]4CC[C@H](N5CCOC5=O)CC4)cc3-c3ccccc3)cc2F)CC1 [Example A50]
test-system: Akt2 (Homo sapiens, UniProt P31751)
log10 IC50: 3.34

Return log10 IC50 for the following compound: CC(=O)N(C)[C@H]1CC[C@H](CC(=O)Nc2cc(-c3ccsc3)c(-c3ccc(C4(N)CC4)c(F)c3)nn2)CC1 [Example 92]
4.15

Return log10 IC50 for the following compound: CN(C(=O)C1CC1)[C@H]1CC[C@H](CC(=O)Nc2cnc(-c3ccc(C(C)(C)N)cc3)c(-c3ccccc3)c2)CC1 [Example A29]
3.76
